target: Angiopoietin-1 receptor (Homo sapiens) (UniProt Q02763); settings: at 0.1 µM
Sequence (Q02763 whole entry): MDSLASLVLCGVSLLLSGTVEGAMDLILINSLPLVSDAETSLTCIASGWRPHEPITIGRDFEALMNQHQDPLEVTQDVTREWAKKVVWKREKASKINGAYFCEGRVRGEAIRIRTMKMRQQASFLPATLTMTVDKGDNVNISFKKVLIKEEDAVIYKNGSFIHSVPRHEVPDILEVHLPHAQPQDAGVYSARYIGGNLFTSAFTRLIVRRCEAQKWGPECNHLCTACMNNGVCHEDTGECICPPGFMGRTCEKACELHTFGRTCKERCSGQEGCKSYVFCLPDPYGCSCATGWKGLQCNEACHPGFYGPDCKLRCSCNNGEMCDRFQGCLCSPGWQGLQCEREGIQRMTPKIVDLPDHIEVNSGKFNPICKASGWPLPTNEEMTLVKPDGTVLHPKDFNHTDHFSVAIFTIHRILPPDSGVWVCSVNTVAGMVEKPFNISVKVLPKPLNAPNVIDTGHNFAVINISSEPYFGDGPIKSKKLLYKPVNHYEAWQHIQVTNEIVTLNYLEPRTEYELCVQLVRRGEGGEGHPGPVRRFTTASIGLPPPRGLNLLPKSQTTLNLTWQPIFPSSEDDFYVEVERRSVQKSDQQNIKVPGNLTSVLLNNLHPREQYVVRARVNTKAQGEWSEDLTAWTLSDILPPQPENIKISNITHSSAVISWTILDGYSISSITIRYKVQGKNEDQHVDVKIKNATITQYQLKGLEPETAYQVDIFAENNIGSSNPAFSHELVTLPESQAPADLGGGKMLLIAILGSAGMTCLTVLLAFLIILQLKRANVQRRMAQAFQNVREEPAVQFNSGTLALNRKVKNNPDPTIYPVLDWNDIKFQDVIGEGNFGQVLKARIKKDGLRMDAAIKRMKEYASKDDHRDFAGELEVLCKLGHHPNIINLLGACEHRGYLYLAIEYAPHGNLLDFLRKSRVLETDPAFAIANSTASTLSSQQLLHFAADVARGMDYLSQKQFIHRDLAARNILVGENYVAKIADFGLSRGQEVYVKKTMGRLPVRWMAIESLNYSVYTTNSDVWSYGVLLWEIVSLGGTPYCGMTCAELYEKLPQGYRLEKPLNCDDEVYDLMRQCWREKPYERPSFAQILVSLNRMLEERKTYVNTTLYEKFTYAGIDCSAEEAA
Description: GSK_PKIS: TIE2 mean inhibition at 0.1 uM [Nanosyn]
QUANTITY: inhibition (%)
Give bare numbers, in %.

Field: example entries. Status: answers known.
{"CHEM SMILES": "COC(=O)Nc1nc2ccc(Oc3ccc(NC(=O)Nc4cccc(Cl)c4)cc3)cc2[nH]1", "inhibition (%)": 17.1}
{"CHEM SMILES": "N#Cc1c(NC(=O)CN2CCOCC2)sc2c1CCCC2", "inhibition (%)": 2.61}
{"CHEM SMILES": "CCNC(=O)O[C@H]1CN[C@H](C#Cc2cc3ncnc(Nc4ccc(OCc5cccc(F)c5)c(Cl)c4)c3s2)C1", "inhibition (%)": 1.23}

The following compounds each have a reported value; give each one's inhibition.
1. Cc1ccc(O)cc1Nc1ccnc2cc(-c3ccccn3)ccc12
2. CNC(=O)c1cncc(/C=C/c2ccccc2Cl)c1
3. COc1cc(/C=N/Nc2ncnc3[nH]ncc23)ccc1O
4. CCOc1ccc2c(-c3ccnc(Nc4cccc(C(F)(F)F)c4)n3)cnn2n1
5. c1cc(-c2cnn3nc(N4CCOCC4)ccc23)nc(NC2CC2)n1

Resp:
7.91
-0.85
2.16
1.3
0.4
